B1: FBXO3 (parent)
chain: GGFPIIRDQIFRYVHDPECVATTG

Variants of: B1
testSummary: protein stability index of a GFP-peptide fusion (GPS, HEK-293T) (PSI 1-6); higher = more stable;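 also: lentivirally expressed fusions sorted by FACS into six bins by GFP to DsRed ratio, PSI derived from sequencing read proportions per bin multiplied by bin number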
conditionSet: c terminus: a fixed tail appended
Outcome: y for protein stability index of at least 2; n for anything lower.

F11R = y
D16S = y
V20G = y

Textbook exercise: given the entry R7L , state whether its protein stability index is greater than or equal to 2.
n

Next entry: I10T
y

Next entry: H15T
y

Next entry: D16E
y

Next entry: R12K
y

Next entry: E18F
n

Next entry: R12N
y

Next entry: T23I
n

Next entry: D16G
n

Next entry: I10L
y

Next entry: I6A
y

Next entry: F11N
y

Next entry: A21I
n
